# Test target: Nuclear receptor subfamily 1 group I member 2 (Homo sapiens) (UniProt O75469)
# Sequence (O75469 whole entry, looked up): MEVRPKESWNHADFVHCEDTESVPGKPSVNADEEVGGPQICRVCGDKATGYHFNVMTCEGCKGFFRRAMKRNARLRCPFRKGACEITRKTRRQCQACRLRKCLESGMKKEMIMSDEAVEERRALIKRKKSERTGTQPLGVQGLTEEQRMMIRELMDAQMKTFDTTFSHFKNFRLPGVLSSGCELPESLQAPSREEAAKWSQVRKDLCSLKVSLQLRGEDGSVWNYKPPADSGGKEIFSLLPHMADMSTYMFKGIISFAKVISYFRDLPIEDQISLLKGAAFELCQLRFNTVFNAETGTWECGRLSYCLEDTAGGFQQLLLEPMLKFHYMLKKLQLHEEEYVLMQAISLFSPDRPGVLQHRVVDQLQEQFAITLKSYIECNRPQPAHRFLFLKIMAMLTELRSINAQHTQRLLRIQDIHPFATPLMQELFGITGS
# Method summary: NVS_NR_hPXR: NovaScreen (NVS) Nuclear Receptor Binding Assay for human Pregnane X Receptor (PXR) (AID 2283365);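 also: a drop in FRET signal versus DMSO baseline means the compound binds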
Records with an inconclusive call do not appear. Activity calls are given as the source filed them. The calls were made as follows: active = hit-call score of the fitted dose curve at least 0.9, where 1 is the maximum; inconclusive = response in the unintended direction; inactive = score below 0.9.
Returns: one label drawn from active, inactive

Use the examples below as a reference point.
[[record]]
molecule = "Cc1ccc(N/N=c2\\c(=O)cc/c(=N/Nc3ccc(S(=O)(=O)O)cc3)c2=O)c(C)c1"
class_name = "active"

[[record]]
molecule = "COC(=O)c1c(C)cc(O)c(C)c1O"
class_name = "inactive"

[[record]]
molecule = "CC(C)C1=CC2=CC[C@@H]3[C@](C)(CCC[C@@]3(C)C(=O)O)[C@H]2CC1"
class_name = "active"

[[record]]
molecule = "CC/C=C\\C/C=C\\C/C=C\\CCCCCCCC(=O)O"
class_name = "active"

[[record]]
molecule = "O=S1(=O)OC(c2ccc(O)cc2)(c2ccc(O)cc2)c2ccccc21"
class_name = "inactive"


Q. What did this assay record as the result for CCCCC(CC)CCC(CC(C)C)OS(=O)(=O)O (stereo unspecified) ?
A. active

---

# Method summary: CCTE_Shafer_MEA_acute_network_burst_percentage: CCTE's Neural Acute Assay for Percentage of Network Bursts, Shafer Lab (AID 2284022);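 also: curves fitted for loss so actives lower network burst percentage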
# Description: CCTE_Shafer_MEA_acute assay is conducted using Axion Biosystems 48 well microelectrode array (MEA) plates and Maestro recording system. Each well of the MEA plate contains a grid of 16 microelectrodes embedded in the culture surface. Electrically active cells, such as neurons, can be cultured over the electrodes, and electrical activity in these cells can be recorded extracellularly. […]
The source made the active and inactive calls. The calls were made as follows: active = hit-call score of the fitted dose curve at least 0.9, where 1 is the maximum; inactive = score below 0.9.
Thanks in advance; please answer with one of these: true = active, false = inactive

Take a look at these entries with their results.
[[record]]
compound = "O=C1CCCN1CCO"
class_name = "false"

[[record]]
compound = "CCCCC(CC)COCC1CO1 (stereo not given)"
class_name = "false"

[[record]]
compound = "C=C[Si](OC(C)=O)(OC(C)=O)OC(C)=O"
class_name = "false"

[[record]]
compound = "Nc1ncn([C@@H]2O[C@H](CO)[C@@H](O)[C@H]2O)c(=O)n1"
class_name = "true"


Now for another entry.
Q. Would you mind telling me which call this test gave `Nc1ccc(N)c(Cl)c1` ?
A. false

---

# Read-out: Interleukin 17A (IL17A), IL17A (gene 3605)
# Method summary: BSK_BT_xIL17A: BioMAP Diversity Plus: BT Assay for Interleukin 17A (IL17A) Biomarker Activity (AID 2284229)
# Recorded conditions: primary human B cells with PBMC
Calls of active or inactive are those of the source. How the source made its calls: active means hit-call score of the fitted dose curve at least 0.9, where 1 is the maximum; inactive means score below 0.9.
The reply should be one of these categories: active, inactive

Worked examples follow.
[[record]]
molecule = "C=CC(=O)OCC(Br)CBr (configuration not stated)"
class_name = "active"

[[record]]
molecule = "C=CCOc1c(Br)cc(Br)cc1Br"
class_name = "inactive"

[[record]]
molecule = "C=CC=CC=CCCCCC"
class_name = "inactive"

[[record]]
molecule = "O=Nc1ccc(O)cc1"
class_name = "inactive"

[[record]]
molecule = "c1ccc2c(c1)ccc1ncccc12"
class_name = "inactive"

[[record]]
molecule = "O=C(Nc1ccccc1SSc1ccccc1NC(=O)c1ccccc1)c1ccccc1"
class_name = "active"

[[record]]
molecule = "O=C(Cl)c1cc(C(=O)Cl)cc(C(=O)Cl)c1"
class_name = "active"

[[record]]
molecule = "CCCCNc1ccc(NCCCC)c2c1C(=O)c1ccccc1C2=O"
class_name = "inactive"

[[record]]
molecule = "S=C(NC1CCCCC1)NC1CCCCC1"
class_name = "inactive"

[[record]]
molecule = "CC(C)C(=O)C(C)C"
class_name = "inactive"


Q. So what was the verdict on `O=c1c2ccccc2oc2ccccc12` in this test?
A. inactive

Q. Next molecule up: CC1OC1C1CCC2(C)OC2C1 (configuration not stated)
A. inactive

Q. Consider next the molecule `c1ccc2c(c1)ccc1cc3c(ccc4ccccc43)cc12` in the same way.
A. inactive

Q. Also need `N#[N+]c1ccc2c(S(=O)(=O)[O-])cccc2c1O` , thanks.
A. inactive

Q. Also `CCCCC/C=C\C/C=C\CCCCCCCC(=O)OC` ?
A. active

Q. Here is the next molecule: `COc1ccc2nc(N)sc2c1`
A. inactive

Q. Moving on to the next molecule: C#CC1(O)CC[C@H]2[C@@H]3CCC4=CCCC[C@@H]4[C@H]3CC[C@@]21C (some centres not stated)
A. active

---

# Read-out: Plasminogen activator inhibitor-1 (PAI1), SERPINE1 (gene 5054)
# Method summary: BSK_hDFCGF_PAI1: BioMAP Diversity Plus: hDFCGF Assay for Plasminogen activator inhibitor-1 (PAI1) Biomarker Activity (AID 2283066)
# Recorded conditions: primary human foreskin fibroblasts; actives raise or lower the signal
Calls of active or inactive are those of the source. Rule for the calls: active = hit-call score of the fitted dose curve at least 0.9, where 1 is the maximum; inactive = score below 0.9.
The reply should be one of these categories: TRUE (active), FALSE (inactive)

The following compounds have reported results that may help.
[[record]]
compound = "CO[Si](OC)(OC)c1ccccc1"
class_name = "FALSE"

[[record]]
compound = "CCCCC/C=C\\C/C=C\\CCCCCCCC(=O)OC"
class_name = "TRUE"

[[record]]
compound = "S=C(NC1CCCCC1)NC1CCCCC1"
class_name = "FALSE"

[[record]]
compound = "CCCCC(CC)COCC1CO1 (stereo not given)"
class_name = "FALSE"


Q. Can you look up the reported call for `CCCCCCCCc1ccc(Nc2ccc(CCCCCCCC)cc2)cc1` for me?
A. FALSE

---

# Read-out: urokinase plasminogen activator (uPA), PLAU (gene 5328)
# Method summary: BSK_KF3CT_uPA: BioMAP Diversity Plus: KF3CT Assay for urokinase plasminogen activator (uPA) Biomarker Activity (AID 2283075)
# Recorded conditions: primary human keratinocytes with fibroblasts; actives raise or lower the signal
The source made the active and inactive calls. The calls were made as follows: active = hit-call score of the fitted dose curve at least 0.9, where 1 is the maximum; inactive = score below 0.9.
Reported property: AC50

Guide cases for AC50, answers given:
[[record]]
molecule = "CCOc1nc(F)cc2nc(S(=O)(=O)Nc3c(Cl)cccc3C(=O)OC)nn12"
val = "inactive"

[[record]]
molecule = "CCCCCCCCc1ccc(Nc2ccc(CCCCCCCC)cc2)cc1"
val = "inactive"

[[record]]
molecule = "CCCCNc1ccc(NCCCC)c2c1C(=O)c1ccccc1C2=O"
val = "inactive"

[[record]]
molecule = "O=C(Nc1ccccc1SSc1ccccc1NC(=O)c1ccccc1)c1ccccc1"
val = "inactive"

[[record]]
molecule = "CC(C)(c1cc(Br)c(OCCO)c(Br)c1)c1cc(Br)c(OCCO)c(Br)c1"
val = "16.2 µM (active)"


Could you tell me AC50 for each of these molecules? They are listed below.
1. CCCCC(CC)COC(=O)c1ccccc1O (stereo not drawn)
2. C=CC(=O)OCC(Br)CBr (stereo not drawn)
3. N#[N+]c1ccc2c(S(=O)(=O)[O-])cccc2c1O
4. O=Nc1ccc(O)cc1
5. S=C(NC1CCCCC1)NC1CCCCC1
6. O=C(c1ccc(O)cc1)c1ccc(O)cc1O

A.
inactive
34.1 µM (active)
inactive
inactive
inactive
inactive

For every item in the list below, what is its measured AC50?
1. CC(C)C(=O)C(C)C
2. Nc1ccc(N)c(Cl)c1

A.
["inactive", "inactive"]

---

# Test target: Peroxisome proliferator-activated receptor gamma (Homo sapiens) (UniProt P37231)
# Sequence (P37231 whole entry, looked up): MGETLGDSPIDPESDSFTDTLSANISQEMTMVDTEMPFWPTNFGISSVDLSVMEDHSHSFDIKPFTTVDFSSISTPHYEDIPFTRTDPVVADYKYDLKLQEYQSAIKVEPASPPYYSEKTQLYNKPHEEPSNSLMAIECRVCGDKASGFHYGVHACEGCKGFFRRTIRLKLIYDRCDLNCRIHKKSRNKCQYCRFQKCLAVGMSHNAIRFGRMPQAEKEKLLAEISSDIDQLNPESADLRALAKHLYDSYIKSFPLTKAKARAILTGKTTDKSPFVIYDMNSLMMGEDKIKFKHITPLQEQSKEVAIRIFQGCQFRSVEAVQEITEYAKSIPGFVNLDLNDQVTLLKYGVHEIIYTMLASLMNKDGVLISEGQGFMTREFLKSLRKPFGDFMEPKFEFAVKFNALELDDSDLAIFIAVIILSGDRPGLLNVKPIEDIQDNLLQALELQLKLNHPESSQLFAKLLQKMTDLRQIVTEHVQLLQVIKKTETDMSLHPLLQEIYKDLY
# Method summary: ATG_PPARg_TRANS: Attagene TRANS-FACTORIAL HepG2 Assay for human Peroxisome Proliferator-activated Receptor-gamma (PPARg) (AID 2283007)
Records with an inconclusive call do not appear. Active and inactive are the calls of the source. Rule for the calls: active = hit-call score of the fitted dose curve at least 0.9, where 1 is the maximum; inconclusive = response in the unintended direction; inactive = score below 0.9.
Choose the fitting class; nothing outside TRUE for active, FALSE for inactive is accepted.

[[record]]
compound = "CC=CC(=O)N(CC)c1ccccc1C"
class_name = "FALSE"

[[record]]
compound = "CCCCCCCCCCCSCC(=O)O"
class_name = "TRUE"

[[record]]
compound = "CCOc1nc(F)cc2nc(S(=O)(=O)Nc3c(Cl)cccc3C(=O)OC)nn12"
class_name = "TRUE"

[[record]]
compound = "O=C1Nc2ccccc2C1(c1ccc(O)cc1)c1ccc(O)cc1"
class_name = "FALSE"

[[record]]
compound = "CNC(=S)N(C)C"
class_name = "FALSE"


Q. I would be grateful if you could indicate the recorded call for `O=C1CCCCCCCCCCC(=O)OCCO1` .
A. FALSE

Q. And the next one, `CCCc1ccc(OC)cc1` ?
A. FALSE

Q. What would you report for CC(=O)C=CC1C(C)=CCC(C)C1(C)C (stereo not drawn) ?
A. FALSE

Q. # repeat for `CCCCCc1ccc(Cl)cc1`
A. FALSE

Q. Now consider COC(=O)C1=C(C)NC(C)=C(C(=O)OCC(C)C)C1c1ccccc1[N+](=O)[O-] (stereo not drawn) and answer again.
A. TRUE
